- STUDY SYSTEM: human thyroid receptor beta ligand-binding domain (LBD) (Homo sapiens)
- Construct: Thyroid receptor beta LBD was added to the plate at a final concentration of 1 nM
- Sequence (P10828 217-461 limits assumed): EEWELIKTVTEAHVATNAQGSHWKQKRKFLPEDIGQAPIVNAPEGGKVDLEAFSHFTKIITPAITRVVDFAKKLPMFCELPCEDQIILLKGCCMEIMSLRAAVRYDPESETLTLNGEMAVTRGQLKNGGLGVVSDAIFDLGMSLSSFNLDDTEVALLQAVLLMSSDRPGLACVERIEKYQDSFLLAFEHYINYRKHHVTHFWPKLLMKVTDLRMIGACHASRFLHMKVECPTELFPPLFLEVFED
- MEASUREMENT PROTOCOL: THR Biochemical Assay (Assay 1): TR-FRET thyroid receptor beta coactivator assay
- CONDITION SET: GST-tagged thyroid receptor beta LBD 1 nM, fluorescein SRC2-2 coactivator peptide 200 nM, 1 hr at rt, TR-FRET ratio 520:495; read-out: Assay 1 (EC50, THR-beta agonist)
pEC50: −log10 of the molar value.
Property: pEC50; scope: individual compounds

Challenge: Which pEC50 is listed for Cc1cc(-n2nc(N)c(=O)[nH]c2=O)cc(C)c1Oc1ccc2c(c1)C1(CCC1)C(=O)N2 [Compound 24] ?
Response given: > 7.30
